Data provenance: patent US8399201B2

- measured_on: T1, calmodulin (Rattus norvegicus, UniProt P0DP29)
- T1 construct: made in house; host or cells: Escherichia coli BL21 (pGEX-4T-1 based plasmid)
- measurement_notes: Pull-down of 35S-methionine-labelled TRPM8 fragments on GST-CaM agarose-GSH beads, SDS/PAGE and autoradiography
- Type: binding
- Design: key: (+) binding was detected; (−) no binding was detected
- settings: rat TRPM8 constructs; binding buffer with 2 mM CaCl2, 30 min room temperature
- Method: ^35S-methionine labelled TRPM8 fragments were synthesized using TnT® T7 Quick Coupled Transcription/Translation System (Promega) following the vendor recommended protocol. Briefly, 10 μl of 0.1 μg/μl pAGA3 based TRPM8 construct (listed in Table 1) was added to 90 μl of TNT Quick Master Mix with 2 μl of [^35S]-methionine (1000 Ci/mmmol at 10 mCi/ml). The reaction mixture was incubated at 30° C. for 90 min. […]
parameter: Binding (binding activity to calmodulin)

• TRPM8-6/pAGA3: Rat TRPM8 fragment, residues M63-S352, 289 aa (protein) AMESICKCGYAQSQHIEGTQINQNEKWNYKKHTKEFPTDAFGDIQFETLGKKGKYLRLSCDTDSETLYELLTQHWHLKTPNLVISVTGGAKNFALKPRMRKIFSRLIYIAQSKGAWILTGGTHYGLMKYIGEVVRDNTISRNSEENIVAIGIAAWGMVSNRDTLIRNCDDEGHFSAQYIMDDFMRDPLYILDNNHTHLLLVDNGCHGHPTVEAKLRNQLEKYISERTSQDSNYGGKIPIVCFAQGGGRETLKAINTSVKSKIPCVVVEGSGQIADVIASLVEVEDVLTSS = +
